Quick list: SK-Br-3 pHER3 IC50 per entry.
# EXPERIMENTAL_TARGET: Human HER3, endogenous, on human cancer cell lines (human, UniProt P21860 20-1342)
# ASSAY_EXPLANATION: cell-based or functional assay
Give the value in pM but do not write pM after it.

binder MOR09823 (antibody, human IgG1, kappa, V domains shown, tested as IgG) VH: QVQLVESGGGLVQPGGSLRLSCAASGFTFSSYAMSWVRQAPGKGLEWVSVTGAVGRTYYPDSVKGRFTISRDNSKNTLYLQMNSLRAEDTAVYYCARWGDEGFDIWGQGTLVTVSS VL: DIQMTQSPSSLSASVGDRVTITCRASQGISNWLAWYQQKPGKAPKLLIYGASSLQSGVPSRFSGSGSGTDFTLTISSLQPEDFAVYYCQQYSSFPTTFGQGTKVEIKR , SK-Br-3 pHER3 IC50 observed: 56

---
Quick note, SK-Br-3 pHER3 IC50 for MOR09825 (antibody, human IgG1, kappa, V domains shown, tested as IgG) VH: QVQLVESGGGLVQPGGSLRLSCAASGFTFSSYAMSWVRQAPGKGLEWVSAINSQGKSTYYADSVKGRFTISRDNSKNTLYLQMNSLRAEDTAVYYCARWGDEGFDIWGQGTLVTVSS VL: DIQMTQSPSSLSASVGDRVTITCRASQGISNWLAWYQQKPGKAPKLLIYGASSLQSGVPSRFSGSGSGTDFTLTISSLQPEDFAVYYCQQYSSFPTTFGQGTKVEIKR landed at 169

Quick note, SK-Br-3 pHER3 IC50 for MOR09824 (antibody, human IgG1, kappa, V domains shown, tested as IgG) VH: QVQLVESGGGLVQPGGSLRLSCAASGFTFSSYAMSWVRQAPGKGLEWVSVISAWGHVKYYADSVKGRFTISRDNSKNTLYLQMNSLRAEDTAVYYCARWGDEGFDIWGQGTLVTVSS VL: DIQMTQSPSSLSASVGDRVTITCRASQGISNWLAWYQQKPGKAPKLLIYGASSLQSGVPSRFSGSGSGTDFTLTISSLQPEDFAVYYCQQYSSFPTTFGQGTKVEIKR landed at 110

Per the record, MOR12609 (antibody, human IgG1, kappa, V domains shown, tested as IgG) VH: QVQLVESGGGLVQPGGSLRLSCAASGFTFSSYAMSWVRQAPGKGLEWVSVINGLGYTTFYADSVKGRFTISRDNSKNTLYLQMNSLRAEDTAVYYCARWGDEGFDIWGQGTLVTVSS VL: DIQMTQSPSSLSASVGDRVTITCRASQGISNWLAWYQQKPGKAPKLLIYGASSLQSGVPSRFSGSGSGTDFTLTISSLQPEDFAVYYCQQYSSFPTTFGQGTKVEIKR has SK-Br-3 pHER3 IC50 of 241

The value of SK-Br-3 pHER3 IC50 measured for the binder MOR09974 (antibody, human IgG1, kappa, V domains shown, tested as IgG) VH: QVQLVESGGGLVQPGGSLRLSCAASGFTFSSYAMSWVRQAPGKGLEWVSVINPSGNFTNYADSVKGRFTISRDNSKNTLYLQMNSLRAEDTAVYYCARWGDEGFDIWGQGTLVTVSS VL: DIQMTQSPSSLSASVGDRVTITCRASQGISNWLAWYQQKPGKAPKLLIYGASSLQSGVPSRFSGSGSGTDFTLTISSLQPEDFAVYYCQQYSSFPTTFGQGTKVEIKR turned out to be 1930
